Molecular target: Isoleucine--tRNA ligase (Escherichia coli (strain K12), UniProt P00956)
Sequence (P00956 whole entry): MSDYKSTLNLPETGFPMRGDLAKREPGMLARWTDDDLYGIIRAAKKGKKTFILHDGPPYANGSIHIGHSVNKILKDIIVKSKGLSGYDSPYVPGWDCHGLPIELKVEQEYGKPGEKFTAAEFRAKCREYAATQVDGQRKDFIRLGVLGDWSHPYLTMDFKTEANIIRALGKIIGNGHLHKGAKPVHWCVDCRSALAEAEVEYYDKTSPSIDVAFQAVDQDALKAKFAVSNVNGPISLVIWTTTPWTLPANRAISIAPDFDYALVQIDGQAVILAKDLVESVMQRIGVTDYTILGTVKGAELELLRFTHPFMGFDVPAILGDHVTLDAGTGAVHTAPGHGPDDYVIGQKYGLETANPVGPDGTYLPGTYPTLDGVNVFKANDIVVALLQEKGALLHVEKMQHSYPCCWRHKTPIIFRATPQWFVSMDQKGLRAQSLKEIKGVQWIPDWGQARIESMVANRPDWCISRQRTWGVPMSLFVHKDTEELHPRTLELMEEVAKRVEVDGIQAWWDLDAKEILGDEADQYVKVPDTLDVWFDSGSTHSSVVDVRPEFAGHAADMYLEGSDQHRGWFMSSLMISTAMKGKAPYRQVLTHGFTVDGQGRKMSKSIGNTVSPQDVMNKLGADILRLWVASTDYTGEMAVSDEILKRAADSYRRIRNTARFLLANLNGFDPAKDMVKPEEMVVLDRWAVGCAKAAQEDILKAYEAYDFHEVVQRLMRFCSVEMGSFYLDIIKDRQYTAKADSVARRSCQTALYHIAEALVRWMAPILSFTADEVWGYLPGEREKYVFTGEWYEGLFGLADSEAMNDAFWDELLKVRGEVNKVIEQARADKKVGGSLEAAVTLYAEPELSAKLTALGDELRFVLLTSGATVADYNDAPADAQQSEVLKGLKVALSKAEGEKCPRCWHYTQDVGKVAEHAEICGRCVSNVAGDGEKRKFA
Test: Competitive Ligand Binding Assay
Settings: pH 7.5; 20 °C
QUANTITY: Ki (µM)
Give a bare numeral; the unit µM is implied.

Study these solved cases before continuing.
{"columns": ["COMPOUND", "TARGET SYSTEM", "Ki, µM"],
 "data": [
  ["CCC[C@@H](C)C(N)C(=O)O (stereo partly drawn) [(3R)-2-amino-3-methylhexanoic acid]", "Isoleucine--tRNA ligase (Escherichia coli (strain K12), UniProt P00956)", 1670],
  ["CCC(CC)C(N)C(=O)O (centres undefined) [2-amino-3-ethylpentanoic acid]", "Isoleucine--tRNA ligase (Escherichia coli (strain K12), UniProt P00956)", 530],
  ["CC(C)(C)C[C@H](N)C(=O)O [(2S)-2-amino-4,4-dimethylpentanoic acid]", "Isoleucine--tRNA ligase (Escherichia coli (strain K12), UniProt P00956)", 12500]
]}

Exercise: Give its Ki value. Item: CCC(C)(C)[C@H](N)C(=O)O (racemic) [2-amino-3,3-dimethylpentanoic acid]
Key: 1250

Exercise: Could you do the same for CCC(C)[C@H](N)CO (stereo partly drawn) [(2S)-2-amino-3-methylpentan-1-ol] , please?
Key: 8330

Exercise: Could you do the same for CCCC[C@H](C)C(N)C(=O)O (stereo partly drawn) [(3S)-2-amino-3-methylheptanoic acid] , please?
Key: 2500

Exercise: Could you do the same for CCC[C@H](CC)C(N)C(=O)O (stereo partly drawn) [(3S)-2-amino-3-ethylhexanoic acid] , please?
Key: 5000

Exercise: Could you do the same for CCC[C@H](C)[C@H](N)C(=O)O [(2S,3S)-2-amino-3-methylhexanoic acid] , please?
Key: 50

Exercise: Could you do the same for CC(C)CC[C@H](N)C(=O)O [(2S)-2-amino-5-methylhexanoic acid] , please?
Key: 2500
